# RLM values compiled below
METHOD_SUMMARY: Microsomal stability assay, rat liver microsomes
Format: in vitro ADME
The figure you give is taken to be in µL/min/mg; do not add the unit.

Worked examples, 6 compounds total:
C=CC[C@H](NC(=O)[C@H]1CCC(=O)O1)[C@H](O)CN[C@H]1CC2(CCC2)Oc2ncc(CC(C)(C)C)cc21 : 137
CCC[C@H](NC(=O)[C@@H](C)OC)[C@H](O)CN[C@H]1CC2(CCC2)Oc2c1cc(CC(C)(C)C)nc2NC : 212
CCOC[C@H](NC(C)=O)[C@@H](O)CN[C@H]1CC2(CCC2)Oc2ncc(CC(C)(C)C)cc21 : 45
C=CC[C@H](NC(=O)COCC)[C@H](O)CN[C@H]1CC2(CCC2)Oc2ncc(CC(C)(C)C)cc21 : 176
C=CC[C@H](NC(=O)[C@@H](C)OC)[C@H](O)CN[C@H]1CC2(CCC2)Oc2c1cc(CC(C)C)cc2-n1ccnc1 : 337
C=CC[C@H](NC(=O)COC)[C@H](O)CN[C@H]1CC2(CCC2)Oc2c1cc(CC(C)(C)C)nc2Nc1cccnc1 : 152

Shift focus to the following entry.
# RLM lookup, item C#CC[C@H](NC(C)=O)[C@H](O)CNC1CC2(CCC2)Oc2c1cc(CC(C)(C)C)nc2NC (stereo partly shown)
106
